TARGET: Histone-lysine N-methyltransferase EZH2 (Homo sapiens, UniProt Q15910)
Sequence (Q15910 whole entry): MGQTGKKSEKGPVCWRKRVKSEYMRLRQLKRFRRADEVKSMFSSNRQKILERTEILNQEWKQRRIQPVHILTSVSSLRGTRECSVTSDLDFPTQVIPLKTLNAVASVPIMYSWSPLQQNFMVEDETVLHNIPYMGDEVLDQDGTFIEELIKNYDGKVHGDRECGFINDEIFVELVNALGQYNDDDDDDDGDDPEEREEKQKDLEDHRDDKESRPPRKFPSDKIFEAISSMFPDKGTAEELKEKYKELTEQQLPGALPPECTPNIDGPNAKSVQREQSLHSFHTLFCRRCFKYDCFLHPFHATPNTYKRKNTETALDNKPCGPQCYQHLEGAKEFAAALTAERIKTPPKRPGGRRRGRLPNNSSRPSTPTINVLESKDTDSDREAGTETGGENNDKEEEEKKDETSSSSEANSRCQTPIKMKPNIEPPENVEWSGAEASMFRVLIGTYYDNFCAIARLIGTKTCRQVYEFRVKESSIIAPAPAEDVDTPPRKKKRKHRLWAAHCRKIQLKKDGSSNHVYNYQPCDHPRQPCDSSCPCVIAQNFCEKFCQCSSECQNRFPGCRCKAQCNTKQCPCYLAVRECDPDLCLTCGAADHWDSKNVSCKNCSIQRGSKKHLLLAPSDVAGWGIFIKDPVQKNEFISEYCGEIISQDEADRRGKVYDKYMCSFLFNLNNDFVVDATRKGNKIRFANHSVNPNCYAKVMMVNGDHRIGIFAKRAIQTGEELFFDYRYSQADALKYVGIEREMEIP
PROCEDURE DETAILS: Inhibition of N-terminal FLAG-tagged EZH2 in PRC2 complex (unknown origin) expressed in baculovirus infected Sf9 cells using H2N-RKQLATKAAR(Kme0)SAPATGGVKKP-NTPEGBiot peptide as substrate preincubated with [3H]SAM for 4 to 5 hrs followed by substrate addition and measured after 20 hrs by Topcount reader analysis
ENDPOINT LABEL: log10 IC50 (log10 of the value in pM)

[
  {
    "CHEMICAL SMILES": "Cc1cc(S(C)(=O)=O)c(CNC(=O)c2c(C)n([C@H](C)C3CCN(CC(F)(F)F)CC3)c3ccccc23)c(=O)[nH]1",
    "log10 IC50": 3.61
  },
  {
    "CHEMICAL SMILES": "CSc1cc(C)[nH]c(=O)c1CNC(=O)c1c(C)n([C@H](C)[C@H]2CC[C@@H](N3CC(F)(F)C3)CC2)c2ccccc12",
    "log10 IC50": 2.26
  },
  {
    "CHEMICAL SMILES": "CSc1cc(C)[nH]c(=O)c1CNC(=O)c1c(C)n([C@H](C)C2CCN(CC(C)(C)O)CC2)c2ccccc12",
    "log10 IC50": 1.83
  },
  {
    "CHEMICAL SMILES": "CSc1cc(C)[nH]c(=O)c1CNC(=O)c1c(C)n([C@H](C)[C@H]2OC[C@H](N(C)C)CO2)c2ccccc12",
    "log10 IC50": 2.20
  },
  {
    "CHEMICAL SMILES": "CSc1cc(C)[nH]c(=O)c1CNC(=O)c1c(C)n([C@H](C)C2CCN(C3COC3)CC2)c2ccccc12",
    "log10 IC50": 2.08
  },
  {
    "CHEMICAL SMILES": "CSc1cc(C)[nH]c(=O)c1CNC(=O)c1c(C)n([C@H](C)C2CCN(CC(F)(F)F)CC2)c2ccccc12",
    "log10 IC50": 2.26
  }
]
